Molecular target: NRAS G12C (Homo sapiens (Human), UniProt P01111+P62937, G12C)
Sequence (P01111 whole entry G12C): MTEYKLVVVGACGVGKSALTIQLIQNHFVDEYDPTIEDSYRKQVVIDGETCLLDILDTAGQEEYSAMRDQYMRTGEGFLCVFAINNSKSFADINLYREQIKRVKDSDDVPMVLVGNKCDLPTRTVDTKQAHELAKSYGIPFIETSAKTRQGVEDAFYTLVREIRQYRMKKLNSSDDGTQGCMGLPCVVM
Sequence (P62937 whole entry): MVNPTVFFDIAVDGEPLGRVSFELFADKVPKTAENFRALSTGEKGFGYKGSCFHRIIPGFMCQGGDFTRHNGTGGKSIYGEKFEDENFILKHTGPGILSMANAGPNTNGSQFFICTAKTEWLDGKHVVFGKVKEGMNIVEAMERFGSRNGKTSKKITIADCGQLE
Experiment: Ras-Raf (BRAF RBD) disruption / FRET / MOA assay, NRAS G12C
Format: biochemical
Settings: read-out: IC50* NRAS G12C FRET data
measurement_name: IC50

Record excerpt, results attached:
>  <compound>
C=CC(=O)N1CCOC2(CCN(C(=O)N(C)[C@H](C(=O)N[C@H]3Cc4nc(cs4)-c4ccc5c(c4)c(c(-c4cccnc4[C@H](C)OC)n5CC)CC(C)(C)COC(=O)[C@@H]4CCCN(N4)C3=O)C(C)C)CC2)C1 (atropisomer, axis not shown)

>  <observed>
10 to 100 nM

$$$$
>  <compound>
CCn1c(-c2cccnc2[C@H](C)OC)c2c3cc(ccc31)-c1nc(cs1)C[C@H](NC(=O)[C@H](C(C)C)N(C)C(=O)[C@H]1CCN(C(=O)C#CC(C)(C)N3CCC3)C1)C(=O)N1CCC[C@H](N1)C(=O)OCC(C)(C)C2 (atropisomer, axis not shown)

>  <observed>
10 to 100 nM

$$$$
>  <compound>
C=CC(=O)N1CC[C@@H](C(=O)N(C)[C@H](C(=O)N[C@H]2Cc3cccc(c3)-c3ccc4c(c3)c(c(-c3cccnc3[C@H](C)OC)n4CC)CC(C)(C)COC(=O)[C@@H]3CCCN(N3)C2=O)C(C)C)C1 (atropisomer, axis not shown)

>  <observed>
100 to 1000 nM

$$$$

[Q] I'd like to know its IC50. The compound in question is CO[C@@H](C)c1ncccc1-c1c2c3cc(ccc3n1CC(F)(F)F)-c1csc(n1)C[C@H](NC(=O)[C@H](C(C)C)N(C)C(=O)N1CCN(C(=O)/C=C/CN(C)C)C3(CC3)C1)C(=O)N1CCC[C@H](N1)C(=O)OCC(C)(C)C2 (atropisomer, axis not shown)
[A] 10 to 100 nM

====

The entries below are paired with their reported pIC50.
Target: KRAS WT (Homo sapiens (Human), UniProt P01116+P62937)
Sequence (P01116-2 other isoform, or with tags, fused parts or gaps): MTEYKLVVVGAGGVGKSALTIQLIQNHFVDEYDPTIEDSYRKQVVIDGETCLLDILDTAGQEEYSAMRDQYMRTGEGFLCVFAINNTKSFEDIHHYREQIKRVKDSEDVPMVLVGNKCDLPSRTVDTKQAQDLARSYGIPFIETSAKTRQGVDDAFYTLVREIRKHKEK
Sequence (P62937 whole entry): as the sequence (P62937 whole entry) above
Test: Ras-Raf (BRAF RBD) disruption / FRET / MOA assay, KRAS WT
Format: biochemical
Conditions: read-out: IC50* KRAS WT FRET data
pIC50: −log10 of the molar value.

>  <molecule>
CCn1c(-c2cccnc2[C@H](C)OC)c2c3cc(ccc31)-c1cccc(c1)C[C@H](NC(=O)[C@@H](COC1CN(C(=O)C#C[C@H]3COCCN3C)C1)C(C)C)C(=O)N1CCC[C@H](N1)C(=O)OCC(C)(C)C2 (atropisomer, axis not shown)

>  <pIC50>
< 5.00

$$$$
>  <molecule>
CCn1c(-c2cccnc2COC)c2c3cc(ccc31)-c1cc(O)cc(c1)C[C@H](NC(=O)[C@H](C(C)C)N(C)C(=O)[C@H]1CCN(C(=O)C#CCN3CCOCC3)C1)C(=O)N1CCC[C@H](N1)C(=O)OCC(C)(C)C2

>  <pIC50>
5.00 to 6.00

$$$$
>  <molecule>
C=CC(=O)N1CC[C@H](C(=O)N(C)[C@H](C(=O)N[C@H]2C[C@H]3CN(CCO3)c3ccc4c(c3)c(c(-c3cccnc3[C@H](C)OC)n4CC)CC(C)(C)COC(=O)[C@@H]3CCCN(N3)C2=O)C(C)C)C1 (atropisomer, axis not shown)

>  <pIC50>
5.00 to 6.00

$$$$
>  <molecule>
CCn1c(-c2cccnc2[C@H](C)OC)c2c3cc(ccc31)-c1csc(n1)C[C@H](NC(=O)[C@H](C(C)C)N(C)C(=O)N1CCC3(CC1)CN(C(=O)/C=C/CN1CCCCC1)C3)C(=O)N1CCC[C@H](N1)C(=O)OCC(C)(C)C2 (atropisomer, axis not shown)

>  <pIC50>
6.00 to 7.00

$$$$
>  <molecule>
CC#CC(=O)N1CCC(C(=O)N(C)[C@H](C(=O)N[C@H]2Cc3nc(cs3)-c3ccc4c(c3)c(c(-c3cccnc3[C@H](C)OC)n4CC)CC(C)(C)COC(=O)[C@@H]3CCCN(N3)C2=O)C(C)C)C1 (atropisomer, axis not shown)

>  <pIC50>
5.00 to 6.00

$$$$

[Q] I'd like to know its pIC50. The molecule in question is CCn1c(-c2cccnc2[C@H](C)OC)c2c3cc(ccc31)-c1cc(O)cc(c1)C[C@H](NC(=O)[C@H](C(C)C)N(C)C(=O)c1ncc(NC(=O)/C=C/CN(C)C)s1)C(=O)N1CCC[C@H](N1)C(=O)OCC(C)(C)C2 (atropisomer, axis not shown)
[A] 6.00 to 7.00

[Q] I'd like to know its pIC50. The molecule in question is C=CC(=O)N1CC[C@H](C(=O)N(C2CC2)[C@H](C(=O)N[C@H]2Cc3cccc(c3)-c3ccc4c(c3)c(c(-c3cccnc3[C@H](C)OC)n4CC)CC(C)(C)COC(=O)[C@@H]3CCCN(N3)C2=O)C(C)C)C1 (atropisomer, axis not shown)
[A] 5.00 to 6.00

[Q] I'd like to know its pIC50. The molecule in question is CCn1c(-c2cccnc2[C@H](C)OC)c2c3cc(ccc31)-c1csc(n1)C[C@H](NC(=O)[C@H](C(C)C)N(C)C(=O)N1CCN(C(=O)/C=C/CN3CCOCC3)C3(CC3)C1)C(=O)N1CCC[C@H](N1)C(=O)OCC(C)(C)C2 (atropisomer, axis not shown)
[A] 7.00 to 8.00

[Q] I'd like to know its pIC50. The molecule in question is C=CC(=O)N1CC[C@H](C(=O)N(C)[C@H](C(=O)N[C@H]2Cc3cc(O)cc(c3)-c3ccc4c(c3)c(c(-c3cc(CN(C)C)cnc3[C@H](C)OC)n4CC)CC(C)(C)COC(=O)[C@@H]3CCCN(N3)C2=O)C(C)C)C1 (atropisomer, axis not shown) [Example A536]
[A] 6.00 to 7.00

[Q] I'd like to know its pIC50. The molecule in question is C=CC(=O)N1CC[C@H](C(=O)N(C)[C@H](C(=O)N[C@H]2Cc3nc(cs3)-c3ccc4c(c3)c(c(-c3cccnc3[C@H](C)OC)n4CC(F)(F)F)CC(C)(C)COC(=O)[C@@H]3CCCN(N3)C2=O)C(C)C)C1 (atropisomer, axis not shown)
[A] 5.00 to 6.00

[Q] I'd like to know its pIC50. The molecule in question is CO[C@@H](C)c1ncccc1-c1c2c3cc(ccc3n1CC(F)(F)F)-c1csc(n1)C[C@H](NC(=O)[C@H](C(C)C)N(C)C(=O)N1CCC3(CC1)CN(C(=O)/C=C/CF)C3)C(=O)N1CCC[C@H](N1)C(=O)OCC(C)(C)C2 (atropisomer, axis not shown)
[A] 7.00 to 8.00

[Q] I'd like to know its pIC50. The molecule in question is C=CC(=O)N1CC[C@H](C(=O)N2CCCCC[C@H]2C(=O)N[C@H]2Cc3cccc(c3)-c3ccc4c(c3)c(c(-c3cccnc3[C@H](C)OC)n4CC)CC(C)(C)COC(=O)[C@@H]3CCCN(N3)C2=O)C1 (atropisomer, axis not shown)
[A] < 5.00

[Q] I'd like to know its pIC50. The molecule in question is CCn1c(-c2cccnc2[C@H](C)OC)c2c3cc(ccc31)-c1cc(O)cc(c1)C[C@H](NC(=O)[C@H](C(C)C)N(C)C(=O)[C@H]1CCN(C(=O)C#CC(C)(C)N(C)C)C1)C(=O)N1CCC[C@H](N1)C(=O)OCC(C)(C)C2 (atropisomer, axis not shown)
[A] 6.00 to 7.00

[Q] I'd like to know its pIC50. The molecule in question is C=CC(=O)N1CC[C@H](C(=O)N(C)[C@H](C(=O)N[C@H]2Cc3nc(cs3)-c3ccc4c(c3)c(c(-c3cccnc3[C@H](C)OC)n4CC)CC(C)(C)C/C=C/[C@@H]3CCCN(N3)C2=O)C(C)C)C1 (atropisomer, axis not shown)
[A] < 5.00

====

Target: K-Ras G13C (Homo sapiens (Human), UniProt P01116+P62937, G13C)
Sequence (P01116-2 other isoform, or with tags, fused parts or gaps G13C): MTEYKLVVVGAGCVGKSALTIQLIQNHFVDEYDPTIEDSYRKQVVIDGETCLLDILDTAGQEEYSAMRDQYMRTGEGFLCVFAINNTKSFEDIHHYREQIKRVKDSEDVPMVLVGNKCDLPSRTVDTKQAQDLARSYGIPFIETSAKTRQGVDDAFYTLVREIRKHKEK
Sequence (P62937 whole entry): as the sequence (P62937 whole entry) above
Assay: Ras-Raf (BRAF RBD) disruption / FRET / MOA assay, KRAS G13C
Assay type: biochemical
Settings: KRAS G13C; Ras-Raf disruption/FRET/MOA assay; read-out: IC50* KRAS G13C FRET data
The entries below are paired with their reported IC50.

Record excerpt, results attached:
>  <molecule>
CCn1c(-c2cccnc2[C@H](C)OC)c2c3cc(ccc31)N1CCO[C@@H](C[C@H](NC(=O)[C@H](C(C)C)N3CC[C@@]4(CCN(C(=O)C#CC(C)(C)N(C)C)C4)C3=O)C(=O)N3CCC[C@H](N3)C(=O)OCC(C)(C)C2)C1 (atropisomer, axis not shown)

>  <observed>
1000 to 10000 nM

$$$$
>  <molecule>
C=CC(=O)N1CC[C@H](C(=O)N(C)[C@H](C(=O)N[C@H]2Cc3nc(cs3)-c3ccc4c(c3)c(c(-c3cc(C5=CCN(C)CC5)cnc3[C@H](C)OC)n4CC)CC(C)(C)COC(=O)[C@@H]3CCCN(N3)C2=O)C(C)C)C1 (atropisomer, axis not shown)

>  <observed>
1000 to 10000 nM

$$$$
>  <molecule>
C=CC(=O)N1CCO[C@@H]2CN(C(=O)N(C)[C@H](C(=O)N[C@H]3Cc4nc(cs4)-c4ccc5c(c4)c(c(-c4cccnc4[C@H](C)OC)n5CC)CC(C)(C)COC(=O)[C@@H]4CCCN(N4)C3=O)C(C)C)C[C@@H]21 (atropisomer, axis not shown)

>  <observed>
10 to 100 nM

$$$$

We now examine a further molecule.
[Q] I'd like to know its IC50. The molecule in question is CCn1c(-c2cccnc2[C@H](C)OC)c2c3cc(ccc31)-c1csc(n1)C[C@H](NC(=O)[C@H](C(C)C)N(C)C(=O)N1C[C@H]3CN(C(=O)C#CC(C)(C)N(C)C)CC[C@H]31)C(=O)N1CCC[C@H](N1)C(=O)OCC(C)(C)C2 (atropisomer, axis not shown)
[A] 100 to 1000 nM
